The reported numbers originate from patent EP3741773A1.

biological target: meditope-enabled trastuzumab Fab fragment; assay: SPR
Sequence (chain, as listed by the source, chain 1 of 2): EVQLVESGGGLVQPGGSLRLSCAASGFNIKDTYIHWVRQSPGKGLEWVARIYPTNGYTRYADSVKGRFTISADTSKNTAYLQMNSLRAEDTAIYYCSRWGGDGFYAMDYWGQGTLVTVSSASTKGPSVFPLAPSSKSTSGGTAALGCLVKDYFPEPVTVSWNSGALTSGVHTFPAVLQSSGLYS
Sequence (chain, as listed by the source, chain 2 of 2): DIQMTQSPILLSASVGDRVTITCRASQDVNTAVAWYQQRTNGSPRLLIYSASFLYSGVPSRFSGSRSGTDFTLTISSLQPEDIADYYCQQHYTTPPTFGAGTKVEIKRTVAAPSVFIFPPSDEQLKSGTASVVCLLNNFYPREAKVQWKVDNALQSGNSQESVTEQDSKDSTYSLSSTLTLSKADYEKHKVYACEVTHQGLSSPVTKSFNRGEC
RESULT TYPE: Kd (µM)
Write it as a number; the unit µM goes unstated.

Kindly note the recorded Kd for CQFDLSTRRLKC (modifications not checked) [cQFD meditope] , which is 1
